// provenance: the supplement of paper PMC9112550

Test system: Escherichia coli TOP10;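 also: peptides expressed intracellularly from a pBAD plasmid library in pooled LB shake-flask culture, induced with 0.3% L-arabinose, DNA abundance read by NGS, three biological replicates, DESeq2 with apeglm shrinkage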
Experiment: shrunken log2 fold change of peptide-encoding DNA abundance (4.5 h post-induction vs induction); higher = less antimicrobial activity (less host growth inhibition)
Details: time post-induction: 4.5 h; library: site-saturation at positions 5, 18, 19, 20
Threshold rule: shrunken log2 fold change greater than or equal to -0.02 is 1; below that, 0.

Does shrunken log2 fold change meet or surpass -0.02 for `RRIRERPPRLPRPRPRPSTMPRP` ? 0

Please give the result for `RRIRFRPPRLPRPRPRPGKWPRP` too. 1

Please give the result for `RRIRARPPRLPRPRPRPPAHPRP` too. 1

Please give the result for `RRIRNRPPRLPRPRPRPVDHPRP` too. 1

Please give the result for `RRIRFRPPRLPRPRPRPATRPRP` too. 1

Please give the result for `RRIRMRPPRLPRPRPRPYLVPRP` too. 1

Please give the result for `RRIRIRPPRLPRPRPRPEEMPRP` too. 0

Please give the result for `RRIRHRPPRLPRPRPRPNMGPRP` too. 0

Please give the result for `RRIRVRPPRLPRPRPRPHFGPRP` too. 0

Please give the result for `RRIRERPPRLPRPRPRPCIAPRP` too. 0
